Experiment: Toxicity liver stage against HepG2, at 10uM
Format: cell-based
Set-up: test concentration 10 uM, cell line HepG2-A16-CD81EGFP
Details: human, HepG2-A16-CD81EGFP cells; read-out: INHIBITION
observation_type: cytotoxicity at 10 µM (%)
Express the result in % but write the number alone.

Reported cytotoxicity at 10 µM for O=C(NCC(Cc1cccc(F)c1)N1CCCC1=O)c1ccc(=O)[nH]n1 (stereo not drawn) : what is it?
-0.634

Proceed to CC(C)C(=O)N1CCC(NCc2c(C(C)C)nn(C)c2N(C)C)CC1
5.21

Next compound: CCC(NC(=O)NCc1cc(Cl)ccc1OC)c1noc(C)n1 (stereo not drawn)
4.06

One more compound: CCn1nc(C)c(CN(CCOC)C(=O)c2ccc(=O)[nH]n2)c1C
-2.27

Also need CN(C)c1nc2c(c(N3CCC(O)CC3)n1)CN(CC1CCNC1)CC2 (stereo not drawn) , thanks.
-10.5

Now this one: Cn1nc(C2CCCN(Cc3ccc(F)c(F)c3)C2)c2nccnc21 (stereo not drawn)
-2.9

Continue with CCn1nc(C)c(CCn2ccnc2-c2cc3n(n2)CCNC3)c1C
5.15

Cool, now CCOc1ccc(CN2CCN(C(=O)c3cc(C4CC4)[nH]n3)CC2)cc1
36.1

Follow-up item: O=C(CS(=O)(=O)Cc1cc(Cl)c2c(c1)OCCCO2)NCC1CC1
1.07

Next up: Cc1cnn(CC2CCCN2c2ncnc3ccccc23)c1 (stereo not drawn)
46.8

// next record CC(C)c1noc(CN2CCCC2c2noc(C(C)C)n2)n1 (stereo not drawn)
-5.89

And then Cc1nc(CN2CCCC(NCCc3ccccc3Cl)C2)no1 (stereo not drawn) , what is it?
-11.8

One more compound: O=C(Nc1cccc2c1CCCC2)c1cccnc1N1CCCNCC1
6.84

What do you have for O=C(O)c1cc(C2CC2)nc2c(Cl)cnn12 ?
8.63

Follow-up item: COCC1CN(C(=O)c2ccc(C)o2)Cc2nccn2C1 (stereo not drawn)
-97.1

Moving on to Cn1ccc(N2CCCC(NC(=O)c3ccc(Cl)o3)C2=O)n1 (stereo not drawn)
-2.51

Follow-up item: Cn1cc(C2CCCN2Cc2csc(-c3ccccc3)n2)cn1 (stereo not drawn)
-2.48

Let us now turn to CCCn1ncc(C2CC(=O)NCc3nc4sc(C)cn4c32)c1C (stereo not drawn)
-10.8

What do you get for CC(C)N1CCCC1c1cc(CO)[nH]n1 (stereo not drawn) ?
6

Do the same for Cc1ccc(CN2Cc3c(C(=O)N(C)C)nn(C)c3C2)s1 please
-12.6

Consider next the compound CN1CCCC(Cc2ccnc3ccncc23)CC1 (stereo not drawn) in the same way.
-0.336

Now give it for OCC1CCCCN1CCCNCc1cc(O)c2cc(F)ccc2n1 (stereo not drawn) too.
-39.2

Cool, now CCN(CC1CCCO1)S(=O)(=O)N1CCCCCC1 (stereo not drawn)
-1

Now consider COCCNC(=O)CN(C)CCn1nc2ccccn2c1=O .
-156

Same for CC(NCc1ccccc1CN1CCCC1=O)c1ccc(C#N)cc1 (stereo not drawn)
3.09

Try this compound too: Cn1cc(C2CC(=O)NC23CCN(Cc2ccncc2)CC3)cn1 (stereo not drawn)
13.2

Let us now turn to NC(=O)C(CNC(=O)Cc1ccc(F)cc1)Cc1ccc(F)cc1 (stereo not drawn)
3.02

Another compound to check: CC(C)C(=O)NCc1ccc(N2CCCC2)nc1
-18.4

Entry to check: O=C1NC2(CCN(CC(=O)N3CCOCC3)CC2)Nc2ccccc21
-1.71

// next record CCOC(=O)C1CN(S(=O)(=O)CC)Cc2ncn(CC)c21 (stereo not drawn)
6.83

Param item: CCc1nc(CN2CCCN(C(=O)c3occc3C)CC2)cs1
-21.9

What do you get for CC(=O)N1CCCC(Cc2cncc(Br)c2)CC1 (stereo not drawn) ?
4.99

Quick one: CN(C)C(=O)c1cncnc1-c1ccc(CNC(=O)C2CC2)cc1
2.33

Likewise for O=C1CNc2ncnc(NCc3cccs3)c2N1 ?
2.99

Now consider N#Cc1ccnc(N2CCC(NCCN3CCOCC3)CC2)c1 .
-43.4

How about this compound: COc1cc(CNc2nc(C3CC3)no2)cc(OC)c1OC
-0.291

Same question for CC(=O)NCC(=O)N1Cc2nccn2CC(CN(C)C(C)C)C1 (stereo not drawn) please.
-75.7

CC(C)c1ncc(CN2C[C@@H](CN3CCCN(C)CC3)[C@@H](CO)C2)cn1 , same question.
-9.77

Another compound to look at: CCC1CCCCN1C(=O)c1ccc2[nH]nnc2c1 (stereo not drawn)
-10.7

Same question, O=C(CCn1nc(C(=O)Nc2ccccc2)ccc1=O)Nc1nccs1 this time
-2.83

Can you handle CC1CN(C)c2ccccc2N(C(=O)c2ccc(=O)n(C)c2)C1 (stereo not drawn) next?
-3.51

Continue with Cc1cnn(C2CCCN(C(=O)c3c(C)oc4nc[nH]c(=O)c34)C2)c1 (stereo not drawn)
-6.62

Same question, O=C(c1ccncc1)N1CCCC(c2cc(C(F)F)n3ncnc3n2)C1 (stereo not drawn) this time
-4.45

Please answer likewise for CCc1cc(=O)[nH]c(-c2ccc(NC(CO)CC(C)C)nc2)n1 (stereo not drawn)
-146

Then COCCCN(Cc1cnc(N2CCCC2)nc1)C1CCN(C)CC1 ?
-10.3

Same again, this time with CCn1ccnc1CN(C)c1nc(-c2ccc(Cl)cc2)nc2c1CNC2
-12.7

What do we get for Cc1nc(CN2CCCC(CCc3cccc(C(F)(F)F)c3)C2)co1 (stereo not drawn) ?
-0.0825

CS(=O)(=O)N1CCc2c(cccc2NC(=O)NC2CCCC2)C1 ?
-6.78
